# System: Sonic hedgehog protein (Shh)
# measurementNotes: small-molecule binders of Shh protein, primary screen, biochemical, small-molecule microarray, 635/667 nm fluorescence (AID 1151);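 further: Shh protein binding to compounds spotted on small-molecule microarray slides; score combines spot fluorescence intensity with signal-to-noise across triplicate slides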
# cond: small-molecule microarray binding, 635 nm fluorescence; higher = more signal
Please mark y if the recorded composite z-score is equal to or greater than 0.2, and n if it falls below.

Previously resolved entries follow.
* CCCCC#C[C@@H]1C=C[C@H](OC(C)=O)[C@@H](COC(C)=O)O1 | y
* CCN1C(=O)[C@H]2[C@H]3[C@H](O)[C@H](O)CC(=O)[C@H]3CC[C@H]2C1=O | y
* O=C(NN=C1C[C@@H](O)[C@@H](O)[C@@H]2[C@@H]3C(=O)N(Cc4ccccc4)C(=O)[C@@H]3CC[C@@H]12)OCc1ccccc1 | n
* COc1ccc(O[C@H]2C=C[C@@H](c3ccccc3)O[C@@H]2CON=C(C)CCN2CCc3nc(-c4ccccc4)c(-c4ccccc4)cc3C2)cc1 | n
* C[C@H](ON=C1[C@H]2CCn3c(=O)n(-c4ccccc4)c(=O)n3[C@H]2[C@H](O)[C@@H]2O[C@H]12)c1cn([C@H](CO)Cc2ccccc2)nn1 | y
* CCN1C(=O)[C@H]2[C@H]3[C@H](O)[C@H](O)CC(=NNC(=O)OCc4ccc(OC)cc4)[C@@H]3CC[C@H]2C1=O | n

Moving on to the next compound.
query: Confirm if composite z-score reported for the compound "COC(=O)CC=C[C@@H](C)[C@@H](C=NOC[C@H]1O[C@H](c2ccccc2)C=C[C@@H]1Oc1ccc(OC)cc1)NS(=O)(=O)c1ccc(C)cc1" is 0.2 or above.
result: n

====

# targetUnderTest: E3 ubiquitin-protein ligase XIAP (Homo sapiens) (UniProt P98170)
# Sequence (P98170 whole entry, looked up): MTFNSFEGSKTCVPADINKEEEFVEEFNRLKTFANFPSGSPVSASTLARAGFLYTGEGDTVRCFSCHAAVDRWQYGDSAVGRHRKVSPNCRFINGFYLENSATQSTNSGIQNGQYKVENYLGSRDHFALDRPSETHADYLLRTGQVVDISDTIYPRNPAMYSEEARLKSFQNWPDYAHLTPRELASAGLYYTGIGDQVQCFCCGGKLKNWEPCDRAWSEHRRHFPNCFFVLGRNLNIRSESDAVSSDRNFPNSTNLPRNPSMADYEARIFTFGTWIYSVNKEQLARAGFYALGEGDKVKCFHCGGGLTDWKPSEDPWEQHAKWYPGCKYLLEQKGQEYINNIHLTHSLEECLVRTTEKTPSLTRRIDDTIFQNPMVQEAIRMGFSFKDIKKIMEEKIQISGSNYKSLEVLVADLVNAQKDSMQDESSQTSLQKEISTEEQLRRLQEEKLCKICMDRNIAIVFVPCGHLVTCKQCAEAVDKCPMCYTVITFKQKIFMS
# measurementNotes: XIAP binders, primary screen, biophysical, small-molecule microarray, fluorescence 635 nm (AID 1181);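 further: score merges 667 nm emission and signal to noise over triplicate slides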
# cond: small-molecule microarray binding, higher = more signal
endpoint: composite z-score
Answers are plain numbers.

# annotated cases, reported composite z-score shown
- CCOC(=O)[C@H](CC(C)C)NC(=O)CCC1CC(OC(=O)NCc2cccc3ccccc23)CC2(CCCC(COC(=O)NCCCN3CCCC3=O)O2)O1 (stereo not given in full): -0.104
- CC(C)C[C@H](NC(=O)CCC1CC(OC(=O)NCc2cccc3ccccc23)CC2(CCCC(COC(=O)NCc3ccccc3)O2)O1)C(=O)NCC(c1ccccc1)c1ccccc1 (stereo not given in full): -0.242
- CO[C@@H]1COC(=O)[C@H](CCSC)NC(=O)CC=C[C@@H](C)COC(=O)CCC[C@H]1C: 0.871
- O=C1[C@H]2[C@H]3[C@H](O)[C@H](O)CC(=NOC[C@@H](O)COCc4ccco4)[C@H]3CC[C@H]2C(=O)N1C[C@@H]1CCCO1: -0.217
- C[C@@H](ON=C1[C@H]2CCn3c(=O)n(-c4ccccc4)c(=O)n3[C@H]2[C@H](O)[C@@H]2O[C@H]12)c1cn([C@@H]2COC[C@H]2O)nn1: -0.189
- CCc1cc2c(nc1CC)CCN(CCC(C)=NOC[C@H]1O[C@H](c3ccccc3)C=C[C@@H]1Oc1ccc(OC)cc1)C2: -0.23
- Cn1c(=O)n2n(c1=O)[C@H]1[C@H](O)[C@@H]3O[C@@H]3C(=O)[C@H]1CC2: 0.0799
- CCCNC(=O)OC[C@H]1O[C@H](c2ccccc2)C=C[C@@H]1Oc1ccc(OC)cc1: -0.0629
- COc1ccc(O[C@@H]2[C@H](O)CO[C@H]2C=Cc2ccccc2)cc1: -0.113
- COC(=O)[C@H](C)NC(=O)CCC1CC(OC(=O)NCCc2ccc(F)cc2)CC2(CCCC(COC(=O)NCc3cccc(C(F)(F)F)c3)O2)O1 (stereo not given in full): 0.103

Report composite z-score for each item below.
1. Cc1cc2c(nc1C)CCCCN2CC(C)ON=C[C@@H](C)[C@H](OCc1ccccc1)C(C)C (stereo not given in full)
2. O=C1C[C@@H](O)[C@@H](O)[C@@H]2[C@@H]3C(=O)N(C[C@@H]4CCCO4)C(=O)[C@@H]3CC[C@H]12
3. CCOC(=O)C1=NO[C@@]2(C=C(Br)C3(OCCCO3)[C@H]3O[C@H]32)C1
4. COc1cccc([C@H]2Oc3ccc(OC)cc3C(=NOC[C@@H](O)[C@H]3O[C@@H]4OC(C)(C)O[C@@H]4[C@H]3O)[C@@H]2O)c1
5. CCOC(=O)NN=C1C[C@@H](O)[C@@H](O)[C@@H]2[C@@H]3C(=O)N(c4cccc(Oc5ccccc5)c4)C(=O)[C@@H]3CC[C@H]12

result:
1: 0.0856; 2: -0.28; 3: 0.0657; 4: 0.0865; 5: -0.106
